# Test system: 885724-159-R-J1-PDC complex spheroid viability;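 note: spheroids exposed to compounds for 7 days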
# Test Summary: Anticancer human tumor 885724-159-R-J1-PDC patient-derived pancreatic adenocarcinoma cell line growth inhibition [POLQ]
# Run Conditions: second compound 0.316 µM; first compound 10 µM; hits give low values
Measure Name: viability, T/C (%)
# number only, unit % dropped from output

Returns the measured viability, T/C for the input molecule. Input: O=c1[nH]cc(F)c(=O)[nH]1 + COC1C(OC(N)=O)C(O)C(Oc2ccc3c(O)c(NC(=O)c4ccc(O)c(CC=C(C)C)c4)c(=O)oc3c2C)OC1(C)C
73.6

Given the entry CC1COCCN1c1cc(C2(S(C)(=N)=O)CC2)nc(-c2ccnc3[nH]ccc23)n1 (stereo not drawn) + Nc1ccc(C#CCN(C(=O)Cc2ncc(C(F)(F)F)cc2C(F)(F)F)c2ccc(F)cc2)nn1 , report its measured viability, T/C.
53.2

State the recorded viability, T/C for this entry: COc1cc(C2c3cc4c(cc3C(OC3OC5COC(C)OC5C(O)C3O)C3COC(=O)C23)OCO4)cc(OC)c1O (stereo not drawn) + Cc1cccc(N(C)C(=O)C2C(O)CCN2c2nc(C)cc(C(F)(F)F)c2C#N)c1
48.4
